Provenance of the data: ChEMBL document CHEMBL5108020

Biological target: HTH-type quorum-sensing regulator RhlR (Pseudomonas aeruginosa (strain ATCC 15692 / PAO1 / 1C / PRS 101 / LMG12228))
Sequence (P54292 whole entry): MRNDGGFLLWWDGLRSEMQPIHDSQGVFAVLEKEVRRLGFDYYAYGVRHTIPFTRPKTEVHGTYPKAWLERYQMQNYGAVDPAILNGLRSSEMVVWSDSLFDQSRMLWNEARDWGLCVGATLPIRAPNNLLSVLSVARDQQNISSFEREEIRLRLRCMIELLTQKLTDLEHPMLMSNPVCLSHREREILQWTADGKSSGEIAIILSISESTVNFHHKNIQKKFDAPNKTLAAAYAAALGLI
Assay: Inhibition of Pseudomonas aeruginosa PAO1 RhlR co-transfected with LVAgfp reporter assessed as inhibition of GFP production measured after 12 to 24 hrs by fluorescence based analysis
endpoint_label: IC50 (µM)

1) Cc1cc2nc(N)[nH]c2cc1C
12.5

* * *

Assay: Cytotoxicity against human HDFa cells assessed as reduction in cell viability incubated for 24 hrs by MTT assay
Format: toxicity, cell-based
Strictly below 200 µg/mL in IC50 at 24 h: fulfilled. Otherwise: not fulfilled.

1) CN1CCN(c2ccc(-c3nc4ccccc4[nH]3)cc2)CC1
not fulfilled
2) Cc1ccccc1NC(=O)COc1ccc(-c2nc3ccccc3[nH]2)cc1
not fulfilled
3) O=C(COc1ccc(-c2nc3cc(Cl)ccc3[nH]2)cc1)Nc1ccccc1
fulfilled
4) Cc1ccc2[nH]c(-c3ccc(OCC(=O)Nc4ccccc4[N+](=O)[O-])cc3)nc2c1
not fulfilled
5) C/C(=C\C(=O)OCCCCCCCCC(=O)O)C[C@@H]1OC[C@H](C[C@@H]2O[C@H]2[C@@H](C)[C@H](C)O)[C@@H](O)[C@H]1O
fulfilled
